Reported pIC50 values follow for various compounds
- tested_on: hHSD1 (Homo sapiens)
- Sequence (P28845 whole entry): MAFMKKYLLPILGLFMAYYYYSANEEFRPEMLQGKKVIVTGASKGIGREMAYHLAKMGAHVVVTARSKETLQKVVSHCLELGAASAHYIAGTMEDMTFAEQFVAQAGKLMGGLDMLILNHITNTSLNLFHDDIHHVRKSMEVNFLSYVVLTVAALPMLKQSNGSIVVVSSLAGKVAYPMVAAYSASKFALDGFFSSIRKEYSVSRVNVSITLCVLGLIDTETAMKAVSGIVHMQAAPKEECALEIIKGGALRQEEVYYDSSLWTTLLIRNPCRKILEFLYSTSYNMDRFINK
- run_description: Enzymatic assay, 11b-HSD1 reductase activity (conversion of cortisone into cortisol), recombinant protein
- conditions_used: 2 μM cortisone, 180 μM NADPH, pH 7.2, pIC50 scored, read-out: [C1] hHSD1 reductase Score
pIC50: −log10 of the molar value.

In the examples that follow, each entry is paired with its recorded pIC50.
compound	tested_on	pIC50
O=C1[C@@H]2CCc3ccccc3[C@@H]2CN1Cc1ccccc1	hHSD1 (Homo sapiens)	5.00 to 6.00
O=C1[C@@H]2CCc3ccccc3[C@@H]2CN1C1C2CC3CC(C2)CC1C3 (stereo partly shown)	hHSD1 (Homo sapiens)	5.00 to 6.00
O=C1[C@@H]2CCc3ccccc3[C@@H]2CN1[C@H]1[C@@H]2CC3C[C@H]1C[C@](O)(C3)C2	hHSD1 (Homo sapiens)	> 6.00
O=C1[C@H]2Cc3cnccc3C[C@H]2CN1[C@H]1[C@@H]2CC3C[C@H]1C[C@](O)(C3)C2	hHSD1 (Homo sapiens)	5.00 to 6.00
O=C1N2CCc3c(Br)cccc3C2CN1C1C2CC3CC(C2)CC1C3 (stereo not shown)	hHSD1 (Homo sapiens)	> 6.00
O=C1[C@H]2Cc3ccccc3C[C@H]2CN1[C@H]1[C@@H]2CC3C[C@H]1C[C@](O)(C3)C2	hHSD1 (Homo sapiens)	> 6.00

Then this compound:
Query :: Give its pIC50 value. Item: O=C1[C@H]2Cc3cnccc3C[C@H]2CN1[C@@H]1[C@@H]2CC3C[C@H]1C[C@](O)(C3)C2
Result :: < 5.00

----------
- tested_on: 11b-HSD1 (Mus musculus)
- Construct: endogenous in cells; host or cells: 3T3-L1 (ATCC-CL-173), differentiated into adipocytes
- Sequence (P50172 whole entry): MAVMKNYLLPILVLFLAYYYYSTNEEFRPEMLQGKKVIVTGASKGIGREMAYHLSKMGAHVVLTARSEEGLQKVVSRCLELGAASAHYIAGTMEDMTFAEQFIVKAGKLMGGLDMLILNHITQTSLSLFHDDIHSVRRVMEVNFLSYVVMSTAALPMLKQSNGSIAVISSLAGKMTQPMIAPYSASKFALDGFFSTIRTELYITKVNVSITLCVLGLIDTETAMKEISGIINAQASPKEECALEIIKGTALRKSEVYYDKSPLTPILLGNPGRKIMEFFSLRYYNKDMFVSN
- run_description: Cellular assay, 11b-HSD1 activity in differentiated 3T3-L1 cells
- Assay type: cell-based
- conditions_used: 4 hour pre-incubation, pIC50 scored, read-out: [C2] HSD1 cellular 3T3-L1 Score
measure_name: IC50

compound	IC50
O=C1[C@H]2Cc3ccccc3C[C@H]2CN1[C@H]1[C@@H]2CC3C[C@H]1C[C@](O)(C3)C2	< 1000 nM
O=C1N2CCc3c(Br)cccc3C2CN1C1C2CC3CC(C2)CC1C3 (stereo not shown)	< 1000 nM
O=C1C2Cc3ccccc3CC2CN1C1C2CC3CC(C2)CC1C3 (stereo not shown)	< 1000 nM
O=C1[C@@H]2CCc3ccccc3[C@@H]2CN1C1C2CC3CC(C2)CC1C3 (stereo partly shown)	< 1000 nM
O=C1N2CCc3ccccc3C2CN1[C@@H]1[C@@H]2CC3C[C@H]1C[C@](O)(C3)C2 (stereo partly shown)	< 1000 nM
O=C1[C@@H]2Cc3cccnc3C[C@@H]2CN1[C@@H]1[C@@H]2CC3C[C@H]1C[C@](O)(C3)C2	> 10000 nM

Then this compound:
Query :: Give its IC50 value. Item: O=C1[C@@H]2CCc3ccccc3[C@@H]2CN1Cc1ccccc1
Result :: < 1000 nM

----------
- tested_on: hHSD1 (Homo sapiens)
- run_description: Enzymatic assay, 11b-HSD1 reductase activity (conversion of cortisone into cortisol), recombinant protein
- conditions_used: 2 μM cortisone, 180 μM NADPH, pH 7.2, pIC50 scored, read-out: [C1] hHSD1 reductase Score
pIC50: −log10 of the molar value.
Reported pIC50 values follow for various compounds

In the examples that follow, each entry is paired with its recorded pIC50.
compound	experimental_result
O=C1[C@H]2Cc3ccsc3C[C@@H]2CN1C1C2CC3CC(C2)CC1C3 (some centres unmarked) [Compound 18]	> 6.00
O=C1N(CC23CC4CC(CC(C4)C2)C3)CC2c3ccccc3CCN12 (centres unmarked) [Compound 14]	> 6.00
O=C1[C@H]2CCc3ccccc3[C@@H]2CN1C12CC3CC(CC(C3)C1)C2 [Compound 17]	> 6.00
O=C1C2=Cc3cccnc3CC2CN1C1C2CC3CC(C2)CC1C3 (centres unmarked) [Compound 21]	< 5.00

Then this compound:
Query :: Give its pIC50 value. Item: O=C1[C@@H]2c3ccccc3CC[C@@H]2CN1C1C2CC3CC(C2)CC1C3 (some centres unmarked) [Compound 1]
Result :: 5.00 to 6.00

----------
- tested_on: hHSD1 (Homo sapiens)
- run_description: Enzymatic assay, 11b-HSD1 reductase activity (conversion of cortisone into cortisol), recombinant protein
- conditions_used: 2 μM cortisone, 180 μM NADPH, pH 7.2, pIC50 scored, read-out: [C1] hHSD1 reductase Score
pIC50: −log10 of the molar value.
measure_name: pIC50

In the examples that follow, each entry is paired with its recorded pIC50.
compound	experimental_result
O=C1N2CCc3ccccc3C2CN1C1C2CC3CC(C2)CC1C3 (stereo not shown)	> 6.00
O=C1N(C2C3CC4CC(C3)CC2C4)C[C@H]2Cc3ccccc3CN12 (stereo partly shown)	5.00 to 6.00
O=C1[C@@H]2CCc3ccccc3[C@H]2CN1Cc1ccccc1	< 5.00
COc1cccc2c1CC1CN(C3C4CC5CC(C4)CC3C5)C(=O)C1C2 (stereo not shown)	5.00 to 6.00
O=C1C2=Cc3cnccc3CC2CN1[C@H]1[C@@H]2CC3C[C@H]1C[C@](O)(C3)C2 (stereo partly shown)	< 5.00

Query :: Give its pIC50 value. Item: O=C1[C@@H]2CCc3ccccc3[C@H]2CN1[C@H]1[C@@H]2CC3C[C@H]1C[C@](F)(C3)C2
Result :: > 6.00

Query :: And what about the compound O=C1[C@@H]2CCc3ccccc3[C@@H]2CN1CC12CC3CC(CC(C3)C1)C2 ?
Result :: > 6.00

----------
- tested_on: 11b-HSD1 (Mus musculus)
- Construct: endogenous in cells
- run_description: Cellular assay, 11b-HSD1 activity in differentiated 3T3-L1 cells
- conditions_used: 4 hour pre-incubation, pIC50 scored, read-out: [C2] HSD1 cellular 3T3-L1 Score
- Protocol: The effects on 11b-HSD1 activity was measured in differentiated 3T3-L1 cells and rat hepatocytes. […] As for the enzymatic assays, the compounds to be tested were taken from a stock solution and tested at a final concentration ranging from −10^−5M to 3·10^−9M. From the thus obtained dose response curves, the pIC50 value was calculated and scored as follows; Score 1=pIC50 value<5, Score 2=pIC50 value in the range of 5 to 6, Score 3=pIC50 value>6. […]
pIC50: −log10 of the molar value.
Reported pIC50 values follow for various molecules

In the examples that follow, each entry is paired with its recorded pIC50.
molecule	tested_on	pIC50
O=C1C2=Cc3cnccc3CC2CN1C1C2CC3CC(C2)CC1C3 (stereo not drawn)	11b-HSD1 (Mus musculus)	> 6.00
O=C1[C@@H]2Cc3ccccc3C[C@@H]2CN1[C@@H]1[C@@H]2CC3C[C@H]1C[C@](O)(C3)C2	11b-HSD1 (Mus musculus)	5.00 to 6.00
O=C1C2=Cc3cnccc3CC2CN1[C@H]1[C@@H]2CC3C[C@H]1C[C@](O)(C3)C2 (stereo partly drawn)	11b-HSD1 (Mus musculus)	5.00 to 6.00
O=C1[C@@H]2CCc3ccccc3[C@H]2CN1Cc1ccccc1	11b-HSD1 (Mus musculus)	> 6.00
O=C1[C@H]2CCc3ccccc3[C@@H]2CN1C12CC3CC(CC(C3)C1)C2	11b-HSD1 (Mus musculus)	> 6.00

Query :: Give its pIC50 value. Item: O=C1[C@H]2CCc3ccccc3[C@@H]2CN1CC12CC3CC(CC(C3)C1)C2
Result :: > 6.00

Query :: And what about the molecule O=C1N2CCc3ccc(Br)cc3C2CN1C1C2CC3CC(C2)CC1C3 (stereo not drawn) ?
Result :: > 6.00

Query :: And what about the molecule COc1cccc2c1CC1CN(C3C4CC5CC(C4)CC3C5)C(=O)C1C2 (stereo not drawn) ?
Result :: > 6.00

Query :: And what about the molecule O=C1C2=Cc3cccnc3CC2CN1C1C2CC3CC(C2)CC1C3 (stereo not drawn) ?
Result :: > 6.00

Query :: And what about the molecule O=C1[C@@H]2CCc3ccccc3[C@H]2CN1[C@H]1[C@@H]2CC3C[C@H]1C[C@](O)(C3)C2 ?
Result :: > 6.00

Query :: And what about the molecule O=C1[C@H]2Cc3cnccc3C[C@H]2CN1[C@@H]1[C@@H]2CC3C[C@H]1C[C@](O)(C3)C2 ?
Result :: < 5.00

Query :: And what about the molecule O=C1N2CCc3ccccc3C2CN1C1C2CC3CC(C2)CC1C3 (stereo not drawn) ?
Result :: > 6.00

Query :: And what about the molecule O=C1N(CC23CC4CC(CC(C4)C2)C3)CC2c3ccccc3CCN12 (stereo not drawn) ?
Result :: > 6.00

----------
- tested_on: 11b-HSD1 (Mus musculus)
- Construct: endogenous in cells
- run_description: Cellular assay, 11b-HSD1 activity in differentiated 3T3-L1 cells
- conditions_used: 4 hour pre-incubation, pIC50 scored, read-out: [C2] HSD1 cellular 3T3-L1 Score
Reported IC50 values follow for various molecules

Query :: Give its IC50 value. Item: O=C1N(C2C3CC4CC(C3)CC2C4)CC2CCc3ccccc3N12 (centres unmarked)
Result :: > 10 µM

Query :: And what about the molecule O=C1[C@@H]2c3ccccc3CC[C@@H]2CN1C1C2CC3CC(C2)CC1C3 (some centres unmarked) ?
Result :: 1 to 10 µM

Query :: And what about the molecule O=C1[C@H]2Cc3ccccc3CN2CN1C1C2CC3CC(C2)CC1C3 (some centres unmarked) ?
Result :: < 1 µM

Query :: And what about the molecule O=C1[C@H]2CCc3ccccc3[C@@H]2CN1C1C2CC3CC(C2)CC1C3 (some centres unmarked) ?
Result :: < 1 µM

Query :: And what about the molecule O=C1N2CCc3ccccc3C2CN1[C@H]1[C@@H]2CC3C[C@H]1C[C@](O)(C3)C2 (some centres unmarked) ?
Result :: < 1 µM

Query :: And what about the molecule COc1ccc2c(c1)CC1C(=O)N(C3C4CC5CC(C4)CC3C5)CC1C2 (centres unmarked) ?
Result :: < 1 µM

Query :: And what about the molecule O=C1[C@H]2Cc3ccsc3C[C@@H]2CN1C1C2CC3CC(C2)CC1C3 (some centres unmarked) ?
Result :: < 1 µM
